target: UniProt:P47989
assay_method_text: Xanthine oxidase inhibitory activity, 96 well plate, kinetic reading at 295 nm
Assay type: biochemical
assay_context: compound concentration 0.1 μM
Reported values of PERCENT XANTHINE OXIDASE INHIBITION for individual entries

>  <molecule>
O=C(Nc1ccc(F)cc1)c1ccc(-c2nnn[nH]2)cc1

>  <PERCENT XANTHINE OXIDASE INHIBITION (%)>
59

$$$$
>  <molecule>
O=C(OCc1ccco1)c1ccc(-c2nnn[nH]2)cc1

>  <PERCENT XANTHINE OXIDASE INHIBITION (%)>
91

$$$$
>  <molecule>
CCCOC(=O)c1ccc(-c2nnn[nH]2)cc1

>  <PERCENT XANTHINE OXIDASE INHIBITION (%)>
95

$$$$
>  <molecule>
O=C(OCC(Cl)(Cl)Cl)c1ccc(-c2nnn[nH]2)cc1

>  <PERCENT XANTHINE OXIDASE INHIBITION (%)>
73

$$$$
>  <molecule>
c1cc(-c2nnn[nH]2)ccc1OCC1CCCCC1

>  <PERCENT XANTHINE OXIDASE INHIBITION (%)>
21

$$$$
>  <molecule>
CC(C)COc1ccc(-c2nnn[nH]2)cc1

>  <PERCENT XANTHINE OXIDASE INHIBITION (%)>
74

$$$$
>  <molecule>
O=C(OC1CCC2CCCCC2C1)c1ccc(-c2nnn[nH]2)cc1 (centres unmarked)

>  <PERCENT XANTHINE OXIDASE INHIBITION (%)>
11

$$$$
>  <molecule>
c1ccc(CCCOc2ccc(-c3nnn[nH]3)cc2)cc1

>  <PERCENT XANTHINE OXIDASE INHIBITION (%)>
9

$$$$
>  <molecule>
N#Cc1cc(-c2nnn[nH]2)ccc1C(=O)Nc1cccnc1

>  <PERCENT XANTHINE OXIDASE INHIBITION (%)>
41

$$$$
>  <molecule>
O=C(OCCN1C(=O)CCC1=O)c1ccc(-c2nnn[nH]2)cc1

>  <PERCENT XANTHINE OXIDASE INHIBITION (%)>
9

$$$$
>  <molecule>
O=C(Nc1ccccc1)Nc1ccc(-c2nnn[nH]2)cc1

>  <PERCENT XANTHINE OXIDASE INHIBITION (%)>
9

$$$$

====

In this section, each of the molecules is paired with its reported PERCENT XANTHINE OXIDASE INHIBITION.
target: xanthine oxidase (Homo sapiens, UniProt P47989)
Sequence (P47989 whole entry, species assumed): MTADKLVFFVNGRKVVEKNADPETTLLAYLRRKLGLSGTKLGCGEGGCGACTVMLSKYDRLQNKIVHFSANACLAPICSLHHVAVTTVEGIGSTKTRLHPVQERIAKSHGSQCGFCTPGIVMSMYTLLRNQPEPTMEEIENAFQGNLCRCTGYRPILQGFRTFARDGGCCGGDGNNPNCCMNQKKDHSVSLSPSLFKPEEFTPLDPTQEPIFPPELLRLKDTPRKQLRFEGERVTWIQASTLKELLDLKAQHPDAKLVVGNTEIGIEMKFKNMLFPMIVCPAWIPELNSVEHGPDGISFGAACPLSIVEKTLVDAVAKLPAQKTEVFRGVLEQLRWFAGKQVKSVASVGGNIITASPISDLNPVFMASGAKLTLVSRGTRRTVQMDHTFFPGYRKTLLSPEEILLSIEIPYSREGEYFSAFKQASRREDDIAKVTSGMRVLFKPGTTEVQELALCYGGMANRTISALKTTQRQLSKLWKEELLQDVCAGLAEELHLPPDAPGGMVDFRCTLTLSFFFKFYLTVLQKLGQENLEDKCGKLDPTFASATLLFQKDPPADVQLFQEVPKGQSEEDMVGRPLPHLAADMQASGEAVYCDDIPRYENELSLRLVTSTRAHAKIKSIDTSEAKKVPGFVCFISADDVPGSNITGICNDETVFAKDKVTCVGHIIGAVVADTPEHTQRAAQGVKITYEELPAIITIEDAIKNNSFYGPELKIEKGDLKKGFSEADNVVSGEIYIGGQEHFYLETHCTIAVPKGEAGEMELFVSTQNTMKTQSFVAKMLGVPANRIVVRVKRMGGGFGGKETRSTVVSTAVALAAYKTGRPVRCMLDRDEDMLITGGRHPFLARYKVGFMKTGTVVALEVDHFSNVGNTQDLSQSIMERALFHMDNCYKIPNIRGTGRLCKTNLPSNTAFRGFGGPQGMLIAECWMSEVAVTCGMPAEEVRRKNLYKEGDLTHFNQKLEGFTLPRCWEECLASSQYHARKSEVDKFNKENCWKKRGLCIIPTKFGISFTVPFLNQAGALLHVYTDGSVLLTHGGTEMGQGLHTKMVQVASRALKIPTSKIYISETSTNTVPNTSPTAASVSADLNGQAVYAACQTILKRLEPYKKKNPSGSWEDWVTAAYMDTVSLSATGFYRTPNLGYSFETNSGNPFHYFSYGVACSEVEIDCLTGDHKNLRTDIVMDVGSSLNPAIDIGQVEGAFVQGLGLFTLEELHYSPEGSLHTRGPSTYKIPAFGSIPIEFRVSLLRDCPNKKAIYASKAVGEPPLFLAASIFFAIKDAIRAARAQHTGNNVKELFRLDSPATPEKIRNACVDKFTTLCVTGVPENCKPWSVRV
assay_method_text: Xanthine oxidase inhibitory activity, 96 well plate, kinetic reading at 295 nm
Type: biochemical
assay_context: compound concentration 0.01 μM

>  <molecule>
O=C(OCCN1CCOCC1)c1ccc(-c2nnn[nH]2)cc1

>  <unit_text>
%

>  <PERCENT XANTHINE OXIDASE INHIBITION>
3

$$$$
>  <molecule>
CCC#CCOC(=O)c1ccc(-c2nnn[nH]2)cc1

>  <unit_text>
%

>  <PERCENT XANTHINE OXIDASE INHIBITION>
0

$$$$
>  <molecule>
O=C(OCC(Cl)(Cl)Cl)c1ccc(-c2nnn[nH]2)cc1

>  <unit_text>
%

>  <PERCENT XANTHINE OXIDASE INHIBITION>
14

$$$$
>  <molecule>
C#CCCCOC(=O)c1ccc(-c2nnn[nH]2)cc1

>  <unit_text>
%

>  <PERCENT XANTHINE OXIDASE INHIBITION>
8

$$$$
>  <molecule>
C=C(C)C1CC=C(COC(=O)c2ccc(-c3nnn[nH]3)cc2)CC1 (stereo not shown)

>  <unit_text>
%

>  <PERCENT XANTHINE OXIDASE INHIBITION>
0

$$$$
>  <molecule>
O=C(OCc1ccc(Br)cc1)c1ccc(-c2nnn[nH]2)cc1

>  <unit_text>
%

>  <PERCENT XANTHINE OXIDASE INHIBITION>
17

$$$$
>  <molecule>
O=C(OCC(F)(F)F)c1ccc(-c2nnn[nH]2)cc1

>  <unit_text>
%

>  <PERCENT XANTHINE OXIDASE INHIBITION>
12

$$$$
>  <molecule>
O=C(OCCN1C(=O)CCC1=O)c1ccc(-c2nnn[nH]2)cc1

>  <unit_text>
%

>  <PERCENT XANTHINE OXIDASE INHIBITION>
5

$$$$
>  <molecule>
O=C(Oc1cccc(Br)c1)c1ccc(-c2nnn[nH]2)cc1

>  <unit_text>
%

>  <PERCENT XANTHINE OXIDASE INHIBITION>
8

$$$$
>  <molecule>
O=C(OCC(F)(F)C(F)F)c1ccc(-c2nnn[nH]2)cc1

>  <unit_text>
%

>  <PERCENT XANTHINE OXIDASE INHIBITION>
9

$$$$
>  <molecule>
O=C(OCC(C(F)(F)F)C(F)(F)F)c1ccc(-c2nnn[nH]2)cc1

>  <unit_text>
%

>  <PERCENT XANTHINE OXIDASE INHIBITION>
13

$$$$
>  <molecule>
O=C(OC1CCCCC1)c1ccc(-c2nnn[nH]2)cc1

>  <unit_text>
%

>  <PERCENT XANTHINE OXIDASE INHIBITION>
6

$$$$
>  <molecule>
O=C(OC1CCC2CCCCC2C1)c1ccc(-c2nnn[nH]2)cc1 (stereo not shown)

>  <unit_text>
%

>  <PERCENT XANTHINE OXIDASE INHIBITION>
19

$$$$
